# fold change of affinity per entry
- target of assay: T1, Human CD3eg linker (human)
- T1 construct: Single chain: epsilon and gamma subunits of human CD3 joined by a 29-mer linker, Flag-tag at the C-terminus; also called recombinant human CD3
- T1 chain: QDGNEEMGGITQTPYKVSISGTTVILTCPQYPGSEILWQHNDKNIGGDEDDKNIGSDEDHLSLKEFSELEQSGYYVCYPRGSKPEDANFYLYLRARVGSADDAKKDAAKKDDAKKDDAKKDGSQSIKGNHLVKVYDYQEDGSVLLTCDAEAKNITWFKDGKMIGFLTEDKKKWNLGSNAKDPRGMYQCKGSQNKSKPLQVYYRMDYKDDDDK
- run description: Biacore SPR, vs template H183/L072
Answer with a number only, understood to be in fold.

H183/L072 VH W33V (antibody, name in Kabat numbering, V domains shown) VH: QVQLVESGGGLVQPGRSLRLSCAASGFTFSNAVMHWVRQAPGKGLEWVAQIKDKGNAYAAYYAPSVKGRFTISRDDSKNSIYLQMNSLKTEDTAVYYCHYVHYASASTVLPAFGVDAWGQGTTVTVSS VL: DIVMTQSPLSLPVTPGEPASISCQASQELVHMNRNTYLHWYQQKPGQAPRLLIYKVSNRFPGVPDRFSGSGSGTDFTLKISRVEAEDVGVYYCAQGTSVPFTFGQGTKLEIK    0
H183/L072 VH N31T (antibody, name in Kabat numbering, V domains shown) VH: QVQLVESGGGLVQPGRSLRLSCAASGFTFSTAWMHWVRQAPGKGLEWVAQIKDKGNAYAAYYAPSVKGRFTISRDDSKNSIYLQMNSLKTEDTAVYYCHYVHYASASTVLPAFGVDAWGQGTTVTVSS VL: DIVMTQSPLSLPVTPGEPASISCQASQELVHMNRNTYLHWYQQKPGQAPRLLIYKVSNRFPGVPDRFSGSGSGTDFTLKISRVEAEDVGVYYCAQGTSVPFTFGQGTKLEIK    0.6

Exercise: Give the value of fold change of affinity reported for the following: H183/L072 VH M34P (antibody, name in Kabat numbering, V domains shown) VH: QVQLVESGGGLVQPGRSLRLSCAASGFTFSNAWPHWVRQAPGKGLEWVAQIKDKGNAYAAYYAPSVKGRFTISRDDSKNSIYLQMNSLKTEDTAVYYCHYVHYASASTVLPAFGVDAWGQGTTVTVSS VL: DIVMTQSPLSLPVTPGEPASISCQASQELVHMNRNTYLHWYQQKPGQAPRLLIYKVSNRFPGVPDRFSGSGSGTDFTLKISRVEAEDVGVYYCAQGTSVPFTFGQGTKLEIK
Solution: 0

Exercise: Dear colleague, please send me the reported fold change of affinity for H183/L072 VH K52bM (antibody, name in Kabat numbering, V domains shown) VH: QVQLVESGGGLVQPGRSLRLSCAASGFTFSNAWMHWVRQAPGKGLEWVAQIKDMGNAYAAYYAPSVKGRFTISRDDSKNSIYLQMNSLKTEDTAVYYCHYVHYASASTVLPAFGVDAWGQGTTVTVSS VL: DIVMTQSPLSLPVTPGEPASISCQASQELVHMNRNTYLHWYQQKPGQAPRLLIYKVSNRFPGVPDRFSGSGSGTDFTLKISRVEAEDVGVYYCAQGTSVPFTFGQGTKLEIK when you can.
Solution: 0.5

Exercise: Provide only the value of recorded fold change of affinity for H183/L072 VH Y59A (antibody, name in Kabat numbering, V domains shown) VH: QVQLVESGGGLVQPGRSLRLSCAASGFTFSNAWMHWVRQAPGKGLEWVAQIKDKGNAYAAYAAPSVKGRFTISRDDSKNSIYLQMNSLKTEDTAVYYCHYVHYASASTVLPAFGVDAWGQGTTVTVSS VL: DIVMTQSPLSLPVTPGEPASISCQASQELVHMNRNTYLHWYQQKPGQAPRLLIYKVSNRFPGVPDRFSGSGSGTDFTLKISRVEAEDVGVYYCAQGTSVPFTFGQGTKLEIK
Solution: 1

Where these numbers come from: patent US20210388087A1
